- protocol.notes: inhibitors of Clostridioides difficile proliferation – 4-point retest, confirmation (AID 1224921);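 note: plate controls were DMSO wells for no effect and levofloxacin 16 µg/mL wells for full effect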
- experimental.context: Clostridioides difficile clinical isolate growth, OD600, 24 h, active compounds read low; at 30 µM unless noted
About 350 (25%) of roughly 1,400 compounds were called active. Not shown: some 2% with an inconclusive outcome. Only a sample is shown. Measured potencies and affinities stand elsewhere.
attribute.measured: max activity

Check out these entries, answers already filled in.
[[record]]
chem_smiles = "O=C(C[C@@H]1C[C@@H]2c3cc(NC(=O)Nc4ccc(C(F)(F)F)cc4)ccc3O[C@@H]2[C@H](CO)O1)NCc1ccc(Cl)cc1"
obs_value = "27.7% (inactive)"

[[record]]
chem_smiles = "COCC(=O)Nc1ccc2c(c1)OC[C@@H](C)N(Cc1ccccc1F)C[C@@H](C)[C@@H](OC)CN(C)C2=O"
obs_value = "-4.19% (inactive)"

[[record]]
chem_smiles = "C[C@H](CO)N1C[C@H](C)[C@@H](CN(C)Cc2ccncc2)Oc2cc(C3=CCCCC3)ccc2S1(=O)=O"
obs_value = "25.5% [at 28.5 µM] (inactive)"

[[record]]
chem_smiles = "C[C@H](NC(=O)N(C)C[C@@H]1OCc2ccccc2-c2c(n(C)c3ccccc23)C(=O)N([C@H](C)CO)C[C@H]1C)c1ccccc1"
obs_value = "18.8% (inactive)"

[[record]]
chem_smiles = "CO[C@@H]1CN(C)C(=O)c2ccc(NC(C)=O)cc2OC[C@@H](C)N(Cc2cc(F)ccc2F)C[C@H]1C"
obs_value = "-9.54% [at 8 µM] (inactive)"


Consider now this further compound.
Enquiry: Value lookup for max activity; key = `CC(=O)N(C)C[C@H]1Oc2ncc(-c3ccc(C#N)cc3)cc2C(=O)N([C@H](C)CO)C[C@H]1C`
Return: -10.1% [at 1.95 µM] (inactive)

* * *

Recorded max activity for the following molecules
- protocol.notes: inhibitors of Clostridioides difficile proliferation – 4-point retest, confirmation (AID 1224921)
- experimental.context: Clostridioides difficile clinical isolate growth, OD600, 24 h, active compounds read low; at 30 µM unless noted
About 350 (25%) of roughly 1,400 compounds were called active. About 2% were inconclusive and are not listed. These entries were drawn from the full list. Measured potencies and affinities stand elsewhere.

Check out these entries, answers already filled in.
[[record]]
chem_smiles = "COc1ccc(C(=O)Nc2ccc3c(c2)OC[C@H](C)N(C(C)=O)C[C@@H](C)[C@H](OC)CN(C)C3=O)cc1"
attribute_measured = "max activity"
obs_value = "-10.5% (inactive)"

[[record]]
chem_smiles = "C[C@@H]1CN([C@@H](C)CO)C(=O)c2cc(Br)cnc2O[C@H]1CN(C)C(=O)c1ccccc1"
attribute_measured = "max activity"
obs_value = "9.74% (inactive)"

[[record]]
chem_smiles = "C[C@@H]1CN([C@H](C)CO)S(=O)(=O)c2ccc(C#CC3CC3)cc2O[C@H]1CN(C)Cc1ccncc1"
attribute_measured = "max activity"
obs_value = "29.7% [at 8 µM] (inactive)"


Consider now this further molecule.
Enquiry: Value lookup for max activity; key = `COc1ccc(CNC(=O)C[C@H]2C[C@@H]3c4cc(NC(=O)NC5CCCC5)ccc4O[C@@H]3[C@@H](CO)O2)cc1`
Return: -9.75% (inactive)

* * *

- protocol.notes: inhibitors of Clostridioides difficile proliferation – 4-point retest, confirmation (AID 1224921);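 note: plate controls were DMSO wells for no effect and levofloxacin 16 µg/mL wells for full effect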
- experimental.context: Clostridioides difficile clinical isolate growth, OD600, 24 h, active compounds read low; at 30 µM unless noted
The campaign covered roughly 1,400 compounds. About 350 (25%) were called active. About 2% were inconclusive and are not listed. The list is a sample of the results. Potency and affinity values are given separately.
attribute.measured: max activity

Check out these entries, answers already filled in.
[[record]]
molecule = "C[C@@H]1CN([C@@H](C)CO)S(=O)(=O)c2ccc(C3=CCCC3)cc2O[C@H]1CN(C)Cc1ccncc1"
obs_value = "8.26% (inactive)"

[[record]]
molecule = "CCCC(O)C#Cc1cnc2c(c1)C(=O)N([C@H](C)CO)C[C@H](C)[C@H](CN(C)Cc1ccncc1)O2 (stereo not given in full)"
obs_value = "12% (inactive)"

[[record]]
molecule = "C[C@@H]1CCCCO[C@H](CN(C)CC2CC2)[C@H](C)CN([C@@H](C)CO)C(=O)c2cc(NC(=O)Nc3cccc4ccccc34)ccc2O1"
obs_value = "13.7% (inactive)"

[[record]]
molecule = "COc1ccc(CN(C)C[C@H]2OCCCC[C@@H](C)Oc3ccc(NC(=O)Nc4ccc5c(c4)OCO5)cc3C(=O)N([C@@H](C)CO)C[C@@H]2C)cc1"
obs_value = "44.6% (inactive)"


Enquiry: Value lookup for max activity; key = `C[C@@H]1CN([C@@H](C)CO)C(=O)c2c(c3ccccc3n2C)-c2ccccc2CO[C@@H]1CN(C)C(=O)c1ccncc1`
Return: 29.1% (inactive)

Enquiry: Again, but for `C[C@@H]1CN([C@@H](C)CO)S(=O)(=O)c2ccc(C#CC3CCCC3)cc2O[C@@H]1CN(C)Cc1cccnc1`
Return: -18.2% [at 1.95 µM] (inactive)

Enquiry: Again, but for `CN(C)C(=O)c1ccc(-c2ccc([C@@H]3[C@@H](CO)N(C(=O)C4CCCCC4)[C@H]3C#N)cc2)cc1`
Return: -13.2% [at 0.5 µM] (inactive)

Enquiry: Again, but for `O=C(C[C@H]1C[C@H]2c3cc(NC(=O)Nc4ccccc4)ccc3O[C@H]2[C@@H](CO)O1)NC1CCCC1`
Return: -20.3% [at 1.95 µM] (inactive)

Enquiry: Again, but for `CO[C@H]1CN(C)C(=O)c2cc(NC(=O)c3nc4ccccc4s3)ccc2OC[C@H](C)N(Cc2ccncc2)C[C@@H]1C`
Return: 20% (inactive)

Enquiry: Again, but for `COc1ccccc1S(=O)(=O)N[C@H]1C=C[C@@H](CC(=O)N2CCCCC2)O[C@H]1CO`
Return: -12.3% (inactive)

Enquiry: Again, but for `CCCC(=O)Nc1ccc2c(c1)C(=O)N(C)C[C@H](OC)[C@H](C)CN(Cc1ccccc1)[C@@H](C)CO2`
Return: 25.4% (inactive)

Enquiry: Again, but for `CC(C)[C@@H](C)NC(=O)N(C)C[C@@H]1OCc2ccccc2-c2ccccc2C(=O)N([C@@H](C)CO)C[C@H]1C`
Return: 34.8% (inactive)

Enquiry: Again, but for `C[C@@H]1CN([C@H](C)CO)S(=O)(=O)c2ccc(C#CC3CCCCC3)cc2O[C@@H]1CN(C)Cc1cccnc1`
Return: 42.2% (inactive)

Enquiry: Again, but for `CCCN1C[C@H](C)[C@@H](OC)CN(C)C(=O)c2cc(NC(=O)c3cccc(OC)c3)ccc2OC[C@@H]1C`
Return: 12.1% (inactive)

Enquiry: Again, but for `C[C@@H]1CN([C@@H](C)CO)C(=O)Cc2cc(NS(C)(=O)=O)ccc2O[C@@H]1CN(C)Cc1ccc(Oc2ccccc2)cc1`
Return: 36.1% [at 35 µM] (inactive)

* * *

- protocol.notes: inhibitors of Clostridioides difficile proliferation – 4-point retest, confirmation (AID 1224921);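 note: plate controls were DMSO wells for no effect and levofloxacin 16 µg/mL wells for full effect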
- experimental.context: Clostridioides difficile clinical isolate growth, OD600, 24 h, active compounds read low; at 30 µM unless noted
About 350 (25%) of roughly 1,400 compounds were called active. Not shown: some 2% with an inconclusive outcome. These entries were drawn from the full list. Potency and affinity values are given separately.
Recorded max activity for the following molecules

[[record]]
chem_smiles = "C/C=C/c1ccc2c(c1)O[C@H](CN(C)C(=O)c1ccc(F)cc1)[C@H](C)CN([C@@H](C)CO)S2(=O)=O"
obs_value = "18.5% (inactive)"


Consider now this further molecule.
Enquiry: Value lookup for max activity; key = `Cc1ccccc1-c1ccc2c(c1)O[C@H](CN(C)Cc1ccncc1)[C@@H](C)CN([C@@H](C)CO)S2(=O)=O`
Return: 7.76% (inactive)

* * *

- protocol.notes: inhibitors of Clostridioides difficile proliferation – 4-point retest, confirmation (AID 1224921);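 note: plate controls were DMSO wells for no effect and levofloxacin 16 µg/mL wells for full effect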
- experimental.context: Clostridioides difficile clinical isolate growth, OD600, 24 h, active compounds read low; at 30 µM unless noted
Among all 1,400 compounds or so, about 350 (25%) were called active. Inconclusive results (about 2%) are left out. A selection follows. Potency and affinity values are given separately.
Recorded max activity for the following compounds

Check out these entries, answers already filled in.
[[record]]
chem_smiles = "COc1ccc(S(=O)(=O)Nc2ccc3c(c2)C(=O)N([C@@H](C)CO)C[C@@H](C)[C@@H](CN(C)C(=O)CCC(F)(F)F)OCCCC[C@H](C)O3)cc1"
attribute_measured = "max activity"
obs_value = "-14.1% [at 8 µM] (inactive)"

[[record]]
chem_smiles = "CCCC#Cc1ccc2c(c1)O[C@@H](CN(C)Cc1ccncc1)[C@H](C)CN([C@H](C)CO)S2(=O)=O"
attribute_measured = "max activity"
obs_value = "15.9% (inactive)"

[[record]]
chem_smiles = "COc1ccc(S(=O)(=O)Nc2ccc3c(c2)OC[C@@H](C)N(C)C[C@@H](C)[C@H](OC)CN(C)C3=O)cc1"
attribute_measured = "max activity"
obs_value = "-9.73% [at 1.95 µM] (inactive)"

[[record]]
chem_smiles = "Cc1ccc(-c2ccc3c(c2)O[C@H](CN(C)Cc2cccnc2)[C@H](C)CN([C@H](C)CO)S3(=O)=O)cc1"
attribute_measured = "max activity"
obs_value = "17.6% (inactive)"

[[record]]
chem_smiles = "C[C@@H]1CN([C@@H](C)CO)S(=O)(=O)c2ccc(C#CCN(C)C)cc2O[C@H]1CN(C)C(=O)c1ccccc1F"
attribute_measured = "max activity"
obs_value = "7.9% (inactive)"


Enquiry: Value lookup for max activity; key = `C[C@@H]1CCCCO[C@@H](CN(C)Cc2ccc3c(c2)OCO3)[C@H](C)CN([C@H](C)CO)C(=O)c2cc(NC(=O)Nc3ccc(F)cc3)ccc2O1`
Return: 18% (inactive)

Enquiry: Again, but for `CCCNC(=O)Nc1ccc2c(c1)OC[C@@H](C)N(Cc1ccccc1)C[C@H](C)[C@H](OC)CN(C)C2=O`
Return: 33.5% (inactive)

Enquiry: Again, but for `CO[C@H]1CN(C)C(=O)c2cc(NS(=O)(=O)c3cccc(F)c3)ccc2OC[C@@H](C)N(Cc2cc(F)ccc2F)C[C@@H]1C`
Return: 33.9% (inactive)
